Reported koff values are given for each entry in this list.
- Assay system: T1, hHER3 ECD (human HER3 extracellular domain) (human, UniProt P21860 20-643)
- T1 construct: also called recombinant HER3-ECD
- Experiment summary: SPR off rate on HER3-ECD
Value expressed in s⁻¹; do not type the unit.

Binder	Output unit	Measurement
HER3MS00118 (VHH, 17B05 second round, S84A; also called HER3MS0118) VHH: EVQLVESGGGLVQPGGSLRLSCAASGSIGGLNAMAWYRQAPGKERELVAGIFGVGSTRYADSVKGRFTISRDNSKNTVYLQMNSLRAEDTAVYYCRMSSVTRGSSDYWGQGTLVTVSS	s⁻¹	0.00018
HER3MS00120 (VHH, 17B05 second round, E1D, S84A; also called HER3MS0120) VHH: DVQLVESGGGLVQPGGSLRLSCAASGSIGGLNAMAWYRQAPGKERELVAGIFGVGSTRYADSVKGRFTISRDNSKNTVYLQMNSLRAEDTAVYYCRMSSVTRGSSDYWGQGTLVTVSS	s⁻¹	0.00019
HER3MS00119 (VHH, 17B05 second round, S84P (final variant); also called HER3MS0119) VHH: EVQLVESGGGLVQPGGSLRLSCAASGSIGGLNAMAWYRQAPGKERELVAGIFGVGSTRYADSVKGRFTISRDNSKNTVYLQMNSLRPEDTAVYYCRMSSVTRGSSDYWGQGTLVTVSS	s⁻¹	0.00018

Proceed to the following item.
Entry HER3MS00121 (VHH, 17B05 second round, E1D, S84P (final variant for N-terminal use); also called HER3MS0121) VHH: DVQLVESGGGLVQPGGSLRLSCAASGSIGGLNAMAWYRQAPGKERELVAGIFGVGSTRYADSVKGRFTISRDNSKNTVYLQMNSLRPEDTAVYYCRMSSVTRGSSDYWGQGTLVTVSS needs its koff filled in; supply it.
0.00018
